# STUDY TARGET: R. microplus triosephosphate isomerase (RmTIM) (Rhipicephalus microplus)
# Sequence (A8B3A8 entry or part of it): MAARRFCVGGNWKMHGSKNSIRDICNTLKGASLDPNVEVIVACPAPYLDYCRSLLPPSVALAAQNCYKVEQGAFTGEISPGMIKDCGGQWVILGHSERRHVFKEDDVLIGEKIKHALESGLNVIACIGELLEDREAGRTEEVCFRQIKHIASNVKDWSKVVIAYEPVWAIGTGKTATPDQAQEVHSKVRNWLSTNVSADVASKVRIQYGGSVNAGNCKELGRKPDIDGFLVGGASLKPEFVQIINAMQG
# PROTOCOL SUMMARY: biochemical
# STATED CONDITIONS: IC50 (µM), RmTIM
READOUT LABEL: IC50 (µM)

> print(dat)
                                   compound                              study.target  assay.value
1  CC(/C=N/NC(=[Se])NCCN1CCOCC1)=C\c1ccco1 [compound 1378]  R. microplus triosephosphate isomerase (RmTIM) (Rhipicephalus microplus)           30

====

# Tested on: R. microplus
# PROTOCOL SUMMARY: Acaricidal activity on R. microplus (LIT and AIT, overall statement)
# Format: in vivo
# STATED CONDITIONS: LIT 1 mM and AIT 1.5 mM
READOUT LABEL: acaricidal activity (in words)

> print(dat)
                              structure  study.target                   readout.label           assay.value
1         O=C(/C=C/c1ccco1)/C=C/c1ccco1  R. microplus  acaricidal activity (in words)  acaricidal potential
2  Cc1c(/C=C/C(=O)c2ccccc2O)no[n+]1[O-]  R. microplus  acaricidal activity (in words)  acaricidal potential
